Target: T1, Pif1p (nuclear isoform) (Saccharomyces cerevisiae, UniProt P07271 40-859)
T1 sequence: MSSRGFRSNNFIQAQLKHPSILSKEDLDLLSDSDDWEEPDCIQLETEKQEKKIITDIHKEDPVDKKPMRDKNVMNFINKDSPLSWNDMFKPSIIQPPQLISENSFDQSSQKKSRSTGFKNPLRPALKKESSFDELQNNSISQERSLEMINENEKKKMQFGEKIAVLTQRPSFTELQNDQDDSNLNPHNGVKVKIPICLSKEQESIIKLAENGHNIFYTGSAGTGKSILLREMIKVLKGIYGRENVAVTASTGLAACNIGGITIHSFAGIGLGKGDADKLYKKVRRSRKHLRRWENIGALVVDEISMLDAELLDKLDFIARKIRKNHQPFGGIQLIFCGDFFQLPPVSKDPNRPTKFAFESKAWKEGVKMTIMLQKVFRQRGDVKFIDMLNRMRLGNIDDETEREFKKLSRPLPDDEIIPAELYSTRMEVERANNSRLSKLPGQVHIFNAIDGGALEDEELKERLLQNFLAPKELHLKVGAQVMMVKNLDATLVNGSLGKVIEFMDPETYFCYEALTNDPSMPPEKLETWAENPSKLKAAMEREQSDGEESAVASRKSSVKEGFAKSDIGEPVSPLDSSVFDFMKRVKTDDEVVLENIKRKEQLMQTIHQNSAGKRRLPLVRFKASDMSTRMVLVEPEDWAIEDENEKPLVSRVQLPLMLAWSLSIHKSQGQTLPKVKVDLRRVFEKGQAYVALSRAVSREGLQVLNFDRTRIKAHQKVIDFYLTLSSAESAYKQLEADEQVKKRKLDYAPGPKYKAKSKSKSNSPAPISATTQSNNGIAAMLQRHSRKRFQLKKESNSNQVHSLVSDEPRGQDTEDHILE
Assay: EMSA
recorded_metric: Kd (nM)

[
  {
    "binder": "fD20 (dsDNA) DNA 1: CGCCATGGTGATCCGAGTGCAAAAAAAAAA DNA 2: CACTGGCCGTCTTACGGTCGGCACTCGGATCACCATGGCG",
    "reported_result": 320
  }
]
